Please provide measured % cells in E6 tet+/CD8- quadrant for the entries that follow.
Target: T1, HLA-A2/E6 (29-38) tetramer (human; HPV 16)
T1 construct: also called E6(29-38) peptide-MHC tetramer; E6(29-38)-loaded tetramer
Assay: tetramer flow cytometry; transfected 1:1 CD4+ and CD4+/CD8+ Jurkat-derived cells;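 note: cell mixtures transiently transfected with TCR-encoding plasmids, analysed by flow cytometry 48 h later after HLA-A*02:01 E6 tetramer staining combined with anti-CD8 antibody co-staining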
Express the result in % but write the number alone.

IN: Find the measured % cells in E6 tet+/CD8- quadrant of TCR 18 (codon optimized, cysteine modified version) (TCR, V domains shown) V domain 1: KQEVTQIPAALSVPEGENLVLNCSFTDSAIYNLQWFRQDPGKGLTSLLLIQSSQREQTSGRLNASLDKSSGRSTLYIAASQPGDSATYLCAEGNAGGTSYGKLTFGQGTILTVHP V domain 2: DVKVTQSSRYLVKRTGEKVFLECVQDMDHENMFWYRQDPGLGLRLIYFSYDVKMKEKGDIPEGYSVSREKKERFSLILESASTNQTSMYLCASSFWGRSNSPLHFGNGTRLTVTE and report it.
OUT: 3.61

IN: Identify measured % cells in E6 tet+/CD8- quadrant associated with TCR 24 (codon optimized, cysteine modified version) (TCR, V domains shown) V domain 1: AQKITQTQPGMFVQEKEAVTLDCTYDTSDQSYGLFWYKQPSSGEMIFLIYQGSYDEQNATEGRYSLNFQKARKSANLVISASQLGDSAMYFCAMREGRGDSWGKLQFGAGTQVVVTP V domain 2: DVKVTQSSRYLVKRTGEKVFLECVQDMDHENMFWYRQDPGLGLRLIYFSYDVKMKEKGDIPEGYSVSREKKERFSLILESASTNQTSMYLCASSPFGRGSYEQYFGPGTRLTVTE
OUT: 23.5

IN: Provide % cells in E6 tet+/CD8- quadrant value for the following binder: TCR 28 (codon optimized, cysteine modified version) (TCR, V domains shown) V domain 1: RKEVEQDPGPFNVPEGATVAFNCTYSNSASQSFFWYRQDCRKEPKLLMSVYSSGNEDGRFTAQLNRASQYISLLIRDSKLSDSATYLCVVRGGGTSYGKLTFGQGTILTVHP V domain 2: DVKVTQSSRYLVKRTGEKVFLECVQDMDHENMFWYRQDPGLGLRLIYFSYDVKMKEKGDIPEGYSVSREKKERFSLILESASTNQTSMYLCASSLWGRSSGNTIYFGEGSWLTVVE
OUT: 0.15
